Reference source: patent US20160362487A1

Molecular target: T1, human IL-33 (R&D Systems, #3625-IL-010/CF) (human, UniProt O95760 112-270)
T1 construct: Commercial recombinant protein; also called hIL-33; interleukin-33
T1 sequence (looked up): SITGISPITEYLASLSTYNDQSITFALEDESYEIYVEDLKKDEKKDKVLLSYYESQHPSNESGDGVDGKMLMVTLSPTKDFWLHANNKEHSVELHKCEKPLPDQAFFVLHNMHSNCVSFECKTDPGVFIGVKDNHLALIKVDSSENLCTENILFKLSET
Assay: BLI; hIL-33 pre-mixed with mAb-2 H1M9565N
This listing pairs binders with measured mAb-1 Binding to the Pre-complex of mAb-2 & hIL-33.
Number only, in nm; omit the unit.

Binder: H4H9664P (antibody, human IgG4, V domains shown, Human IgG4 Fc (H4H)) VH: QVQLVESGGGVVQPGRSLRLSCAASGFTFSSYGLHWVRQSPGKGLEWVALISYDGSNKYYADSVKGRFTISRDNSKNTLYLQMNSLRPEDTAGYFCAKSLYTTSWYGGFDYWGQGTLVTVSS VL: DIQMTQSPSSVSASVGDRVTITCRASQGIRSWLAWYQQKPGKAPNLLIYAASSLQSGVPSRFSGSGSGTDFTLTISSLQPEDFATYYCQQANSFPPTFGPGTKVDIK
Units Of Measure: nm
Readout Number: 0.48

Given H4H9676P (antibody, human IgG4, V domains shown, Human IgG4 Fc (H4H)) VH: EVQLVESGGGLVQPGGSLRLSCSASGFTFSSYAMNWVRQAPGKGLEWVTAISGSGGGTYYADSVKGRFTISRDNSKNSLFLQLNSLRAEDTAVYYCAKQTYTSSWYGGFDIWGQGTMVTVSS VL: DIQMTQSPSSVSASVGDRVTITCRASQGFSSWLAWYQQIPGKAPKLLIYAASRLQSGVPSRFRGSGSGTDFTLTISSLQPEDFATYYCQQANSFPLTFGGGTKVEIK , state its recorded mAb-1 Binding to the Pre-complex of mAb-2 & hIL-33. 0.45
